Each entry below carries its reported IC50.
- subject.of.test: gastrin/CCK-B receptors (Rattus norvegicus, UniProt P30553)
- Construct: AR4-2J cells were harvested, washed three times with Eagle's modified essential medium
- Sequence (P30553 1-452): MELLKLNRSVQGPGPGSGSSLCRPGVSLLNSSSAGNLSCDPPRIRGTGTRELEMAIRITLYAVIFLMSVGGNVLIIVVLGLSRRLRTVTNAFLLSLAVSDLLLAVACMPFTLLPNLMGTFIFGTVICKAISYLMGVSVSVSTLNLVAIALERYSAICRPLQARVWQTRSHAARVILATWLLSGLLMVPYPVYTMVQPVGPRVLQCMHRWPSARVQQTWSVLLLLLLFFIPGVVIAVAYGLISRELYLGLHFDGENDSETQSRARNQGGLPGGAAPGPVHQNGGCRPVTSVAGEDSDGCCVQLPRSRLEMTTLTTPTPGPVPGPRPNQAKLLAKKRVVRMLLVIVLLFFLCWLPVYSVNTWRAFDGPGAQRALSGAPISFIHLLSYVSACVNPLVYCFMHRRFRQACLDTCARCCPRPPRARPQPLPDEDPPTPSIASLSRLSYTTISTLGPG
- experiment.summary: Displacement of 125I-hG17-1 binding to AR4-2J cells
- details: read-out: IC50 for displacing 125I-hG17-1 binding
Entry rule: numbers only, all in µM.

O=C(N[C@@H](Cc1c[nH]c2ccccc12)C(=O)O)c1ccc(Cl)cc1 = 260

Please look at the following compound next.
Sample CCCN(CCC)C(=O)C(CCC(=O)O)NC(=O)c1ccccc1 (racemic) [proglumide] ; IC50 observed: 1300

The values you see were collected from paper PMC1977912.
